Source: patent US9062066B2

# study-system: UniProt P08631
# Sequence (P08631 whole entry): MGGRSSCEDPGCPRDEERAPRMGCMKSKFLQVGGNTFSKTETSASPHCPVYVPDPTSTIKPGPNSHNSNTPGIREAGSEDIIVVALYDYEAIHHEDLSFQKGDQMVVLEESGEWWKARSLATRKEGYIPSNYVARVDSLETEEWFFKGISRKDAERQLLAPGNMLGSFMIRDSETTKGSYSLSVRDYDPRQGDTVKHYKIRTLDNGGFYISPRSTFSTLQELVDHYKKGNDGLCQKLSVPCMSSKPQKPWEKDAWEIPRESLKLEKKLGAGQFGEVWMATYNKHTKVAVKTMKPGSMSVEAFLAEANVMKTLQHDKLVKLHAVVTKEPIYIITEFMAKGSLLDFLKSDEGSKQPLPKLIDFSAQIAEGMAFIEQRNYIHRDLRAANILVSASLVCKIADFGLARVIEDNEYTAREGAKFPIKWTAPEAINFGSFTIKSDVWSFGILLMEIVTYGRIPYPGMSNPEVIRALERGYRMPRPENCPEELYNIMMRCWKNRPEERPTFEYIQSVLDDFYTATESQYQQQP
# protocol-notes: in vitro Hck tyrosine kinase inhibition
# Type: biochemical
# conditions-used: 1 uM compound; read-out: % inhibition against Hck
measured-parameter: inhibition at 1 µM

These recorded examples may help you get a feel for the data.
# inhibition at 1 µM of CC(NC(=O)c1ccc(-c2cc3ncnc(Nc4cccc(O)c4)c3s2)cc1)C(=O)O (stereo not shown) = > 30%

Given item CCNCc1cccc(-c2cc3ncnc(Nc4cccc(O)c4)c3s2)c1.Cl , the value recorded as its inhibition at 1 µM is > 80%

Lab book: inhibition at 1 µM of Oc1cccc(Nc2ncnc3cc(-c4ccc(CN5CCCCC5)s4)sc23)c1 noted as > 60%

Moving on to another compound below.
Entry CCN(CC)Cc1ccc(-c2cc3ncnc(Nc4cccc(O)c4)c3s2)cc1 , inhibition at 1 µM reported as > 80%
